Source listed as patent US12077483B2.

Experiment: LNP average particle size and polydispersity by dynamic light scattering
Type: physicochemical
Conditions: LNP with the compound as amine lipid; Expt. 7; composition ratio (mol %) 50/9/38/3 for Cmpnd 49, 50/10/38.5/1.5 for the others
Quantity measured: Num Ave Size (nm)

| Compound | Num Ave Size (nm) |
| --- | --- |
| CCCCC/C=C\C/C=C\CCCCCCCC(=O)OCC(COC(=O)CCC(OCCCCCCCC)OCCCCCCCC)COC(=O)OCCCN(CC)CC (stereo not drawn) [Compound 49, reference compound] | 63.19 |

P = CCCCC/C=C\C/C=C\CCCCCCCC(=O)OCC(COC(=O)CCCCCCC/C=C\C/C=C\CCCCC)OC(=O)CCC(CCCCC)OC(=O)OCCCN1CCCC1 (stereo not drawn) [Compound 71]
Q = CCCCC/C=C\C/C=C\CCCCCCCC(=O)OCC(COC(=O)CCCCCCC/C=C\C/C=C\CCCCC)OC(=O)CCC(CCCCCCCC)OC(=O)OCCCN1CCCC1 (stereo not drawn) [Compound 36]
Asked: Param pair: P , Q . Output: the one whose Num Ave Size (nm) is numerically greater. Your answer should be the label attached to the chosen record.
Given back: P

====

Experiment: RNA encapsulation efficiency of LNP (Ribogreen fluorescence assay)
Type: physicochemical
Conditions: LNP with the compound as amine lipid; Expt. 7; composition ratio (mol %) 50/9/38/3 for Cmpnd 49, 50/10/38.5/1.5 for the others
Quantity measured: Encapsulation (%)

| Compound | Encapsulation (%) |
| --- | --- |
| CCCCC/C=C\C/C=C\CCCCCCCC(=O)OCC(COC(=O)CCCCCCC/C=C\C/C=C\CCCCC)OC(=O)CCC(CCCCCCC)OC(=O)OCCCN1CCCC1 (stereo not drawn) | 98 |
| CCCCC/C=C\C/C=C\CCCCCCCC(=O)OCC(COC(=O)CCCCCCC/C=C\C/C=C\CCCCC)OC(=O)CCC(CCCCC)OC(=O)OCCCN1CCCC1 (stereo not drawn) | 97 |
| CCCCC/C=C\C/C=C\CCCCCCCC(=O)OCC(COC(=O)CCC(OCCCCCCCC)OCCCCCCCC)COC(=O)OCCCN(CC)CC (stereo not drawn) [Compound 49, reference compound] | 93 |

====

Test: LNP average particle size and polydispersity by dynamic light scattering
Assay type: physicochemical
Conditions: Table 10; LNP with G00534 sgRNA:Cas9 mRNA 1:2 w/w
Quantity measured: Num Avg Size (nm)

| Compound | Num Avg Size (nm) |
| --- | --- |
| CCCCC/C=C\C/C=C\CCCCCCCC(=O)OCC(COC(=O)CCCCCCC/C=C\C/C=C\CCCCC)OC(=O)CCC(CCCCCC)OC(=O)OCCCN1CCCC1 (stereo not shown) | 83.48 |
| CCCCC/C=C\C/C=C\CCCCCCCC(=O)OCC(COC(=O)CCCCCCC/C=C\C/C=C\CCCCC)OC(=O)CCC(CCCCCCCC)OC(=O)NCCN(C)CC (stereo not shown) | 76.08 |
| CCCCC/C=C\C/C=C\CCCCCCCC(=O)OCC(COC(=O)CCCCCCC/C=C\C/C=C\CCCCC)OC(=O)CCC(CCCCCC)OC(=O)NCCN1CCCC1 (racemic) | 79.18 |
| CCCCC/C=C\C/C=C\CCCCCCCC(=O)OCC(COC(=O)CCC(OCCCCCCCC)OCCCCCCCC)COC(=O)OCCCN(CC)CC (stereo not shown) [Compound 49, reference compound] | 69.85 |

====

Experiment: LNP average particle size and polydispersity by dynamic light scattering
Type: physicochemical
Conditions: LNP with the compound as amine lipid; Expt. 3; composition ratio (mol %) 50/9/38/3 for Cmpnd 49, 50/10/38.5/1.5 for the others
Quantity measured: PDI

Before answering, review these 2 worked examples.
| Molecule | Quantity measured | Test value |
| --- | --- | --- |
| CCCCC/C=C\C/C=C\CCCCCCCC(=O)OCC(COC(=O)CCCCCCC/C=C\C/C=C\CCCCC)OC(=O)CCC(CCCCCC)OC(=O)NCCN1CCCC1 (racemic) | PDI | 0.02 |
| CCCCC/C=C\C/C=C\CCCCCCCC(=O)OCC(COC(=O)CCCCCCC/C=C\C/C=C\CCCCC)OC(=O)CCC(CCCCCCCC)OC(=O)NCCN1CCCC1 (stereo not shown) | PDI | 0.02 |

a = CCCCC/C=C\C/C=C\CCCCCCCC(=O)OCC(COC(=O)CCCCCCC/C=C\C/C=C\CCCCC)OC(=O)CCC(CCCCC)OC(=O)NCCN1CCCC1 (stereo not shown)
b = CCCCC/C=C\C/C=C\CCCCCCCC(=O)OCC(COC(=O)CCC(OCCCCCCCC)OCCCCCCCC)COC(=O)OCCCN(CC)CC (stereo not shown) [Compound 49, reference compound]
Asked: Param pair: a , b . Output: the one whose PDI is numerically greater. Your answer should be the label attached to the chosen record.
Given back: b

====

Experiment: RNA encapsulation efficiency of LNP (Ribogreen fluorescence assay)
Type: physicochemical
Details: LNP with the compound as amine lipid; Expt. 8; composition ratio (mol %) 50/9/38/3 for Cmpnd 49, 50/10/38.5/1.5 for the others
Protocol: A fluorescence-based assay (Ribogreen®, ThermoFisher Scientific) is used to determine total RNA concentration and free RNA. Encapsulation efficiency is calculated as (Total RNA—Free RNA)/Total RNA. […] A SpectraMax M5 Microplate Reader (Molecular Devices) is used to read the samples with excitation, auto cutoff and emission wavelengths set to 488 nm, 515 nm, and 525 nm respectively. Total RNA and free RNA are determined from the appropriate standard curves. […]
Quantity measured: Encapsulation (%)

| Molecule | Encapsulation (%) |
| --- | --- |
| CCCCC/C=C\C/C=C\CCCCCCCC(=O)OCC(COC(=O)CCCCCCC/C=C\C/C=C\CCCCC)OC(=O)CCC(CCCCC)OC(=O)NCC1CCCN1C (stereo not shown) | 99 |
| CCCCC/C=C\C/C=C\CCCCCCCC(=O)OCC(COC(=O)CCCCCCC/C=C\C/C=C\CCCCC)OC(=O)CCC(CCCCCCC)OC(=O)NCC1CCCN1C (stereo not shown) | 99 |
| CCCCC/C=C\C/C=C\CCCCCCCC(=O)OCC(COC(=O)CCCCCCC/C=C\C/C=C\CCCCC)OC(=O)CCC(CCCCCCCCCC)OC(=O)NCC1CCCN1C (stereo not shown) | 99 |
| CCCCC/C=C\C/C=C\CCCCCCCC(=O)OCC(COC(=O)CCCCCCC/C=C\C/C=C\CCCCC)OC(=O)CCC(CCCCCC)OC(=O)NCC1CCCN1C (stereo not shown) | 99 |
| CCCCC/C=C\C/C=C\CCCCCCCC(=O)OCC(COC(=O)CCCCCCC/C=C\C/C=C\CCCCC)OC(=O)CCC(CCCCCCCC)OC(=O)NCC1CCCN1C (stereo not shown) | 99 |
| CCCCC/C=C\C/C=C\CCCCCCCC(=O)OCC(COC(=O)CCC(OCCCCCCCC)OCCCCCCCC)COC(=O)OCCCN(CC)CC (stereo not shown) [Compound 49, reference compound] | 98 |
| CCCCC/C=C\C/C=C\CCCCCCCC(=O)OCC(COC(=O)CCCCCCC/C=C\C/C=C\CCCCC)OC(=O)CCC(CCCCCCCCCCCC)OC(=O)NCC1CCCN1C (stereo not shown) | 98 |

====

Assay: LNP average particle size and polydispersity by dynamic light scattering
Assay type: physicochemical
Settings: LNP with the compound as amine lipid; Expt. 7; composition ratio (mol %) 50/9/38/3 for Cmpnd 49, 50/10/38.5/1.5 for the others
Quantity measured: Num Ave Size (nm)

| Compound | Test value |
| --- | --- |
| CCCCC/C=C\C/C=C\CCCCCCCC(=O)OCC(COC(=O)CCCCCCC/C=C\C/C=C\CCCCC)OC(=O)CCC(CCCCCCC)OC(=O)OCCCN1CCCC1 (stereo not drawn) [Compound 75] | 73.46 |
| CCCCC/C=C\C/C=C\CCCCCCCC(=O)OCC(COC(=O)CCCCCCC/C=C\C/C=C\CCCCC)OC(=O)CCC(CCCCCC)OC(=O)OCCCN1CCCC1 (stereo not drawn) [Compound 45] | 77.92 |
| CCCCC/C=C\C/C=C\CCCCCCCC(=O)OCC(COC(=O)CCCCCCC/C=C\C/C=C\CCCCC)OC(=O)CCC(CCCCCCCCCC)OC(=O)OCCCN1CCCC1 (stereo not drawn) [Compound 66] | 65.07 |

====

Assay: LNP average particle size and polydispersity by dynamic light scattering
Assay type: physicochemical
Conditions: LNP with the compound as amine lipid; Expt. 8; composition ratio (mol %) 50/9/38/3 for Cmpnd 49, 50/10/38.5/1.5 for the others
Quantity measured: Z-Ave Size (nm)

A = CCCCC/C=C\C/C=C\CCCCCCCC(=O)OCC(COC(=O)CCCCCCC/C=C\C/C=C\CCCCC)OC(=O)CCC(CCCCC)OC(=O)NCC1CCCN1C (stereo not shown)
B = CCCCC/C=C\C/C=C\CCCCCCCC(=O)OCC(COC(=O)CCCCCCC/C=C\C/C=C\CCCCC)OC(=O)CCC(CCCCCCCCCCCC)OC(=O)NCC1CCCN1C (stereo not shown)
Asked: Param pair: A , B . Output: the one whose Z-Ave Size (nm) is numerically greater. Your answer should be the label attached to the chosen record.
Given back: A

I = CCCCC/C=C\C/C=C\CCCCCCCC(=O)OCC(COC(=O)CCCCCCC/C=C\C/C=C\CCCCC)OC(=O)CCC(CCCCCC)OC(=O)NCC1CCCN1C (stereo not shown)
II = CCCCC/C=C\C/C=C\CCCCCCCC(=O)OCC(COC(=O)CCCCCCC/C=C\C/C=C\CCCCC)OC(=O)CCC(CCCCCCCCCC)OC(=O)NCC1CCCN1C (stereo not shown)
Asked: Which value of Z-Ave Size (nm) is smaller, the one for I or the one for II ? Your answer should be the label attached to the chosen record.
Given back: II
